target: T1, Recombinant human IL-1beta (rhIL-1b) (human, UniProt P01584 117-269); assay: Biacore high-res, mAb amine-coupled, 23C
T1 construct: R&D Systems Cat. No. 201-LB/CF; also called IL-1β; human IL-1β
Recorded Metric: koff

6.33.1 (antibody, human IgG4, V domains shown, lambda; also called mAb 6.33.1) VH: QVQLVESGGGVVQPGRSLRLSCAASGFTFSVYGMHWVRQAPGKGLEWVAVIWYDGSNKYYADSVKGRFTISRDNSKNTLYLQMNSLRAEDTAVYYCAREKSSGWFFDYWGQGTLVTVSS VL: QSALTQPASVSGSPGQSITISCTGTSSDVGSYNLVSWYQQHPGKAPKLMIYEVSKRPSGISNRFSGSKSGNTASLTISGLQAEDEADYYCCSYAGNSIWVFGGGTKLTVL : 0.000259 s⁻¹
8.18.1 (antibody, human IgG4, V domains shown, lambda; also called mAb 8.18.1) VH: QVQLQESGPGLVKPSETLSLTCTVSGGSVSSGGYYWSWIRQPPGKGLEWIGYFYYSGSPNYNPSLKRRIAISVDTSKNQFSLRLSSVTAADTAVYYCARDPMHYYGMDVWGQGTTVTVSS VL: SSELTQPPSVSVFPGQTANITCSGDKLGDKFACWYQQKPGQSPVLVIYRDNKRPSGIPERFSGSNSGNTATLTISGTQAMDEADYYCQAWDSSTYVVFGGGTKLTVL : 0.000188 s⁻¹
9.19.1 (antibody, human IgG4, V domains shown, lambda; also called mAb 9.19.1) VH: QVQLVESGGGVVQPGRSLRLSCAASGFTFNNYGMHWVRQAPGKGLECVAVIWYDGGNKYYADSVKGRFAISRDNSKNTLYLQMNSLRAEDTAVYYCTAVTKLNYYYGMDVWGQRTTVTVS VL: QSALTQPASVSGSPGQSITISCTGTSSDVGGYNYVSWYQQHPGKAPKFMIYEVSNRPSGVSNRFSGSKSGNTASLTISGLQAEDEADYYCSSYTSSSILVFGGGTKLTVL : 0.00019 s⁻¹

Could you now consider this next binder?
// lookup koff for 5.5.1 (antibody, IgG4, V domains shown, lambda; also called mAb 5.5.1; Ab 5.5.1) VH: QVQLVESGGGVVQPGRSLRLSCAASGFTFSSYGMHWVRQAPGKGLEWVAVIWYDGDNKYYADSVQGRFTISRDNSKNTLYLQMNSLRPEDTAVYYCARERSSSWYFDYWGQGTLVTVSS VL: QSALTQPASVSGSPGQSITISCTGTSSDVGSYNLVSWYQQHPGKAPKLMIYEVSKRPSGISNRFSGSKSGNTASLTISGLQAEDEADYYCCSYAGSSTWVFGGGTKLTVL
0.000704 s⁻¹
